Target: Gamma-secretase
Assay: Inhibition of gamma secretase activity in human H4 cells transfected with APP695 mutant assessed as beta amyloid(1-40) production by whole cell assay
Format: cell-based
property_label: IC50 (nM)

Below, 2 compounds whose answers are already recorded.
| compound | data_value |
| --- | --- |
| CCC[C@H](NC(=O)[C@@H](O)c1ccccc1)C(=O)Nc1ncc(C(O)(CC)CC)s1 | 2.2 |
| CCC[C@H](NC(=O)Cc1cc(F)cc(F)c1)C(=O)Nc1nc(C)c(C(C)NCCC(C)C)s1 (some centres undefined) | 2 |

a = CCC[C@H](NC(=O)Cc1cc(F)cc(F)c1)C(=O)Nc1nc(C)c(C(C)NCC(C)C)s1 (stereo in doubt; 34a)
b = CC[C@H](NC(=O)CCc1cc(F)cc(F)c1)C(=O)Nc1ncc([C@@H](C)CCCC(C)(C)OC)s1
[Q] Thinking about recorded IC50 values, which is higher, a or b ? Answer with the label corresponding to your selection.
[A] a
